These compounds were tested on EGFR (Homo sapiens, UniProt P00533); IC50 is the recorded read-out.
Sequence (P00533 25-1210): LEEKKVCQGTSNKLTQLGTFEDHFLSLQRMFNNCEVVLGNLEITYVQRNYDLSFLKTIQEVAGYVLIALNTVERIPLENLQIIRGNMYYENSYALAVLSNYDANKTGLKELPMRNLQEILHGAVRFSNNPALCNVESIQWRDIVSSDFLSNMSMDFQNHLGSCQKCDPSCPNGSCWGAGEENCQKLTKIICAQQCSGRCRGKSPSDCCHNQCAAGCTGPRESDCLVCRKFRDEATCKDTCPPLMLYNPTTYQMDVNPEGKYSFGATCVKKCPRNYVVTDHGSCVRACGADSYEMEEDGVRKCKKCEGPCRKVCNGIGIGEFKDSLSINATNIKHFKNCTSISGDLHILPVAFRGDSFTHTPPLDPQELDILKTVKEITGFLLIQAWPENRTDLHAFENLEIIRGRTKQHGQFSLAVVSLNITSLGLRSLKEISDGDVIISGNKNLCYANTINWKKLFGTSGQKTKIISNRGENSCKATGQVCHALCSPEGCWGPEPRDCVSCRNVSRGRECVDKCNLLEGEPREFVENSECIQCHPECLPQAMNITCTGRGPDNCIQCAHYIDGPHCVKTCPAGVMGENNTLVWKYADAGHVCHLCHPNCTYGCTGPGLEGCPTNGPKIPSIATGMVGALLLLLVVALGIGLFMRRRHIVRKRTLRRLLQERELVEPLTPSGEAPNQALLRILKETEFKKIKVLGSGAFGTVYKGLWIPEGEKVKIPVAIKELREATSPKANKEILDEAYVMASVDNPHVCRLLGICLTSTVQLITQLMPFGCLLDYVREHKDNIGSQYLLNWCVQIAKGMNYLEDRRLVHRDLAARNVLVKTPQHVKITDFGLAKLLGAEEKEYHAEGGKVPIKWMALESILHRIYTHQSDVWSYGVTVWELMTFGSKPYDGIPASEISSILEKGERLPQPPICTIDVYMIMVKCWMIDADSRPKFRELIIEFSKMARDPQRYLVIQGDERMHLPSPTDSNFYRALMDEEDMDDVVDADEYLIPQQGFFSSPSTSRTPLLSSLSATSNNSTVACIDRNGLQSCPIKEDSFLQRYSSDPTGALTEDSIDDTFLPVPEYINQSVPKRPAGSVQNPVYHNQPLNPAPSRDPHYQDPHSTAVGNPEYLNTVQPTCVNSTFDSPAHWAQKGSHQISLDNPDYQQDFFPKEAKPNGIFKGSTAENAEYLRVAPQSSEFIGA
Note: unit nM is implicit; provide only the numeric part.

>>> valuereported("CNC(=S)NN=C(C)c1c(O)c2ccccc2oc1=O")
2280
>>> valuereported("CCOC(=O)c1sc(=NN=C(C)c2c(O)c3ccccc3oc2=O)n(C)c1C")
563

Then this compound:
### Prompt Retrieve IC50 measured for CCOC(=O)c1sc(=NN=C(C)c2c(O)c3ccccc3oc2=O)[nH]c1C and print it.
### Response 184

###

These molecules were tested on UniProtKB P42345; IC50 is the recorded read-out.
Note: unit µM is implicit; provide only the numeric part.

>>> valuereported("CCOC(=O)c1sc(=NN=C(C)c2c(O)c3ccccc3oc2=O)[nH]c1C [Compound 6a]")
0.719
>>> valuereported("CNC(=S)NN=C(C)c1c(O)c2ccccc2oc1=O [Compound 2b]")
2.96

Then this molecule:
### Prompt Retrieve IC50 measured for CCOC(=O)c1sc(=NN=C(C)c2c(O)c3ccccc3oc2=O)n(C)c1C [Compound 6b] and print it.
### Response 1.45
